Attribution: PubChem BioAssay (NCATS)

- Target desc: Ubiquitin carboxyl-terminal hydrolase 1 (Homo sapiens)
- Protocol description: Inhibitors of USP1/UAF1: Pilot qHTS (AID 504865); also: nearly all actives have a fitted effect of over 35% in size; also: potency is read from the fitted curve at half-maximal effect
- Settings: purified USP1/UAF1, Ub-rhodamine cleavage fluorescence; series mostly up to 114 µM
Inconclusive results are not listed. Calls of active or inactive are those of the source. Calls follow the shape of the dose curve; as a rule, active = well fitted inhibition curve with a large enough effect; inconclusive = small, poorly fitted or top-dose-only effect; inactive = flat fitted curve, though single readings scatter.
Measurement type: Potency

> print(dat)
                           structure.smiles            result
1                              NCCCCCCCCCCN          inactive
2               COC1=C(OC)C(=O)c2ccccc2C1=O  17.8 µM (active)
3  Nc1nc(Cl)nc2c1ncn2[C@@H]1O[C@H](CO)[C@@H](O)[C@H]1O          inactive
